- targetSystem: T1, human gastrin (h-G17) (human, UniProt P01350 76-92)
- T1 peptide (looked up): QGPWLEEEEEAYGWMDF
- runDescription: cell-based or functional assay
propertyMeasured: Ca flux neutralization at roughly 100 fold molar excess over gastrin (1 nM)

binder | result
XPA065 (phage display-derived antibody fragment) (antibody, V domains shown) VH: EVQLVQSGAEVKKPGSSVTVSCKASGGTFDKYAIGWVRQAPGQGLEWMGRIIPTLDLANSAQKFQDRVTITADKFTTTVYMELTNLRPEDTAMYYCTRDPLYNWSGSYWGRGTMVTVSS VL: QAVLTQPSSLSASPGTSASLTCTLRSGINVGSYRIYWYQQRPGSPPQYLLRYKSDSDKQQGSGVPSRFSGSKDASANAGVLFISGLQSDDEADYYCMIWHNSAWVFGGGTKLTVL | ~80%
